Target: CDK9/cyclin T1 (Homo sapiens) (UniProt O60563+P50750)
Assay: Inhibition of recombinant full-length human CDK9/cyclinT1 at 1 uM using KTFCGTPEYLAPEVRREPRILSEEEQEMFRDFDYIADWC peptide as substrate measured after 40 mins in presence of [gamma33P]ATP by scintillation counting method relative to control
Assay type: protein-complex assay
quantity: inhibition (%)
Field format: number, assumed %, no unit text.

Past entries and their recorded results:
INSERT INTO assay_data (chemical_string, result) VALUES
  ('CN(C)C(=O)c1cc2cnc(Nc3ccc(C(=O)NCCCCCN=C=S)cc3)nc2n1C1CCCC1', 97),
  ('CN(C)C(=O)c1cc2cnc(Nc3ccc(C(=O)NCCCCCCN=C=S)cc3F)nc2n1C1CCCC1', 94),
  ('CN(C)C(=O)c1cc2cnc(Nc3ccc(C(=O)NCCCCCN=C=S)cc3O)nc2n1C1CCCC1', 92),
  ('CN(C)C(=O)c1cc2cnc(Nc3ccc(NC(=O)CCCCCCCN=C=S)cc3)nc2n1C1CCCC1', 98),
  ('CN(C)C(=O)c1cc2cnc(Nc3ccc(C(=O)NCCCN=C=S)cc3)nc2n1C1CCCC1', 98),
  ('CN(C)C(=O)c1cc2cnc(Nc3ccc(C(=O)NCCCCCCCN=C=S)cc3)nc2n1C1CCCC1', 97),
  ('CN(C)C(=O)c1cc2cnc(Nc3ccc(NC(=O)CCCCCCCN=C=S)cc3C(F)(F)F)nc2n1C1CCCC1', 72),
  ('CN(C)C(=O)c1cc2cnc(Nc3ccc(NC(=O)CCCN=C=S)cc3)nc2n1C1CCCC1', 98);

Next, consider the following molecule.
Query CN(C)C(=O)c1cc2cnc(Nc3ccc(C(=O)NCCCN=C=S)cc3O)nc2n1C1CCCC1 yields inhibition of 94
